Readings of GI50 for the listed compounds
Tested on: NCI/ADR-RES
Assay: NCI tumour cell line growth inhibition, 48 h
Counter-ions that a name gives are not always drawn. Calls of active or inactive are those of the source. No stated cut-off is given here; in the data, active = GI50 up to about 1.1 µM and inactive = higher.

| compound | GI50 |
| --- | --- |
| CCC1(N)C(=O)OCc2c1cc1n(c2=O)Cc2cc3ccccc3nc2-1 (stereo not given) | 5.02 µM (inactive) |
| O=C(C[n+]1ccccc1)N/N=C(\C(=O)NC1=C(Cl)C(=O)c2ccccc2C1=O)c1c(O)c2ccc(O)cc2oc1=O | 4.08 µM (inactive) |
| O=C(CCc1cccc(O)c1)NCCc1cccc(OCc2ccccc2)c1 | 18.3 µM (inactive) |
| COc1ccc(-c2c(C#N)c(S)n(NS(=O)(=O)c3ccccc3)c(=O)c2C#N)cc1 | 70.5 µM (inactive) |
| CC(C)=CCNc1ncnc2c1ncn2CCC#N | > 100 µM (inactive) |
| O=C(c1ccc(Cl)cc1Cl)N(Cc1cccnc1)C(=S)N(Cc1cccnc1)C(=O)c1ccc(Cl)cc1Cl | 15.5 µM (inactive) |
| N#Cc1nc(CCCN2C(=O)c3ccccc3C2=O)oc1N | > 100 µM (inactive) |
| O=C1C(Cl)=C(N2C(=O)CCCC2=O)C(=O)c2ccccc21 | 22.6 µM (inactive) |
| Clc1ccc(-c2nc(-c3ccc(Cl)cc3)[s+]s2)cc1 | 39.6 µM (inactive) |
| COC(OC)C1(c2ccccc2)Oc2ccccc2C1=O (stereo not given) | 80.7 µM (inactive) |
| CCOC(=O)C1c2[nH]c3ccccc3c2CCN1C(=O)c1ccc(OC)o1 (stereo not given) | > 10 µM (inactive) |
| CS(=O)(=O)c1nc(-c2cc3c(c(S(C)(=O)=O)n2)CCCC3)cc2c1CCCCC2 | > 100 µM (inactive) |
| COc1ccc(C(C)NNC(=O)c2cc[n+]([BH2-]C#N)cc2)c(OC)c1 (stereo not given) | > 100 µM (inactive) |
| O=CNNC(=O)CSc1nc2ccc(I)cc2c(=O)n1Cc1ccccc1 | 31.3 µM (inactive) |
| N=C(N)c1ccc(-c2ccc(-c3ccc(C(=N)N)cc3)o2)cc1 [FURAMIDINE HYDROCHLORIDE] | 31.3 µM (inactive) |
| O=C(O[C@H]1[C@@H](O)[C@H](n2cnc3c(Cl)ncnc32)O[C@@H]1COC(c1ccccc1)(c1ccccc1)c1ccccc1)c1ccccc1 | 34.8 µM (inactive) |
| CC(C)COP(C)(=O)C(N)(C(F)(F)F)C(F)(F)F (stereo not given) | > 100 µM (inactive) |
| O=C(CNc1ccc(Cl)cc1Cl)NC1C=Cc2ccc(S(=O)(=O)Nc3ccc(Cl)cc3Cl)cc2C1=O (stereo not given) | > 100 µM (inactive) |
| Cn1c(N)c(/C=C/C(=O)Oc2ccccc2)c(=O)n(C)c1=O | 75.3 µM (inactive) |
| O=C(CN1CCCCC1)c1ccc2c(c1)Sc1ccccc1O2 | 16.7 µM (inactive) |

* * *

System: HL-60
Assay: NCI tumour cell line growth inhibition, 48 h
Active and inactive are the calls of the source. Cut-off read from the data, not from the text of the source: active = GI50 up to about 1.1 µM and inactive = higher.
quantity-name: GI50

| compound | quantity-name | recorded-value |
| --- | --- | --- |
| CCc1ccccc1NC(=O)CCc1n[nH]c(=S)o1 | GI50 | > 100 µM (inactive) |
| C/C=C1\C(=O)OC2CCN3CCC(COC(=O)C(C)(O)C(C)C1O)C23 (stereo not given) | GI50 | > 100 µM (inactive) |
| COc1ccc2[nH]cc(CCNC(=O)[C@H](Cc3ccccc3)NC(=O)[C@@H](NCC(F)(F)F)C(C)C)c2c1 | GI50 | 20.1 µM (inactive) |
| COc1cc2c(cc1OS(C)(=O)=O)N=C[C@@H]1CCCN1C2=O | GI50 | > 100 µM (inactive) |
| COc1cc(C)c(C(=O)/C=C/c2cc(OC)c(O)c(OC)c2)cc1O | GI50 | 22.1 µM (inactive) |
